Biological target: PETNR (Enterobacter cloacae)
Experiment: Substrate screen of PETNR by spectrophotometric assays or GC analysis
Format: biochemical, Enterobacter cloacae st. PB2
observedProperty: activity of PETNR towards the substrate (in words)

1) O=C(O)/C=C/c1ccccc1 [trans-cinnamic acid]; did not reduce
2) O=C(O)/C=C(\C(=O)O)c1ccccc1 [3-phenylmaleic acid]; did not reduce

###

Target: PETNR (Enterobacter cloacae)
Sequence (P71278 1-365): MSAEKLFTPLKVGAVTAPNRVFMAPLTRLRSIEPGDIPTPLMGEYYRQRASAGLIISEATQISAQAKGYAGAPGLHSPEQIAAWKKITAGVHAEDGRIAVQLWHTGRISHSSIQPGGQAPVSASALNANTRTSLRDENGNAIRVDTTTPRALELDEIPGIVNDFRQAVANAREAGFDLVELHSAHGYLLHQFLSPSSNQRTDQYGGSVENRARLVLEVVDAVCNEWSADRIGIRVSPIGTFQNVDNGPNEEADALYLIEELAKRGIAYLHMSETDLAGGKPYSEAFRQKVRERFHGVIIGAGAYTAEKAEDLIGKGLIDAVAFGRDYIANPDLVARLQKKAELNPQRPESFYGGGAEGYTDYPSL
Test: Steady-state kinetics of PETNR with α,β-unsaturated activated alkenes
Assay type: biochemical, Enterobacter cloacae st. PB2
pKi: −log10 of the molar value.
observedProperty: pKi

1. O=C1C=CCCC1; 1.63
2. CC1=CC(=O)NC1=O [2a, 2-Methylmaleimide]; 2.49
